Test system: MDR1
ASSAY SUMMARY: MDCK-MDR1 permeability assay (BBB penetration potential)
Type: in vitro ADME
PROTOCOL CONDITIONS: dog, MDCK-MDR1, pH 7.4, MDCK-MDR1: Papp A-B
Please mark criterion met if the recorded Papp A→B at 120 min, 5 μM is equal to or greater than 5 ×10⁻⁶ cm/s, and criterion not met if it falls below.

C[C@@]12CC[C@@](C)(N1)[C@@H](F)[C@@H](Oc1ccc(-c3ccc(-c4cn[nH]c4)cc3O)nn1)C2 (single isomer, unassigned)
criterion met
Cn1cc(-c2cc(O)c(-c3ccc(O[C@@H]4C[C@H]5CCC[C@H](N5)[C@@H]4F)nn3)cn2)cn1 (single isomer, unassigned)
criterion not met
C[C@@]12CCC[C@@](C)(N1)[C@@H](F)[C@@H](Oc1ccc(-c3ccc(C#N)cc3O)nn1)C2 (single isomer, unassigned)
criterion met
Cc1ncn(-c2ccc(-c3ccc(O[C@@H]4C[C@H]5CCC[C@H](N5)[C@@H]4F)nn3)c(O)c2)n1 (single isomer, unassigned)
criterion met
Cn1cc(-c2ccc(-c3ccc(O[C@@H]4C[C@H]5CCC[C@H](N5)[C@H]4F)nn3)c(O)c2)cn1 (single isomer, unassigned)
criterion met

Answer whether Papp A→B at 120 min, 5 μM of Cn1ccc(=O)c2cc(-c3ccc(O[C@@H]4C[C@@]5(C)CCC[C@](C)(N5)[C@@H]4F)nn3)c(O)cc21 (single isomer, unassigned) is greater than or equal to 5 ×10⁻⁶ cm/s.
criterion not met

Is reported Papp A→B at 120 min, 5 μM greater than or equal to 5 ×10⁻⁶ cm/s here: Oc1cc(-c2nnco2)c(F)cc1-c1ccc(O[C@@H]2C[C@H]3CC[C@H](N3)[C@@H]2F)nn1 (stereo in doubt) [142-ENT1]
criterion met

Entry Oc1cc(-n2ccnn2)ccc1-c1ccc(O[C@H]2C[C@@H]3CCC[C@@H](N3)[C@H]2F)nn1 (single isomer, unassigned) : is its Papp A→B at 120 min, 5 μM no less than 5 ×10⁻⁶ cm/s?
criterion met

Decide: is the reported value of Papp A→B at 120 min, 5 μM for Cn1ccc2cc(O)c(-c3ccc(O[C@@H]4C[C@@]5(C)CC[C@](C)(N5)[C@@H]4F)nn3)cc2c1=O (single isomer, unassigned) equal to or greater than 5 ×10⁻⁶ cm/s?
criterion met

Is the recorded value of Papp A→B at 120 min, 5 μM equal to or greater than 5 ×10⁻⁶ cm/s for this compound? Oc1cc(-c2cn[nH]c2)c(F)cc1-c1ccc(O[C@H]2C[C@@H]3CCC[C@@H](N3)[C@H]2F)nn1 (single isomer, unassigned)
criterion not met

Can Oc1cc(-c2cn[nH]c2)ccc1-c1ccc(O[C@@H]2C[C@H]3CC[C@H](N3)[C@@H]2F)nn1 (single isomer, unassigned) be said to have Papp A→B at 120 min, 5 μM at or above 5 ×10⁻⁶ cm/s?
criterion not met

For this compound, is measured Papp A→B at 120 min, 5 μM 5 ×10⁻⁶ cm/s or higher? Oc1cc(-c2ccc3nccn3c2)ccc1-c1ccc(O[C@@H]2C[C@H]3CCC[C@H](N3)[C@@H]2F)nn1 (single isomer, unassigned)
criterion not met
